Where these numbers come from: patent US20100056515A1

Recorded melting point by entry

Known results for compounds:
>  <compound>
CCC(CC)c1ccc(OC)c2nc(Oc3c(Cl)cc(Cl)cc3N(C)C)n(C)c12

>  <attributeMeasured>
melting point

>  <result>
173 to 175 °C

$$$$
>  <compound>
CCC(CC)c1ccc(Cl)c2nc(Oc3c(Cl)cc(Cl)cc3CN(C)C)n(C)c12

>  <attributeMeasured>
melting point

>  <result>
149 to 151 °C

$$$$
>  <compound>
CCC(CC)c1ccc(Cl)c2nc(Oc3c(OC)cc(C)nc3N(C)C)n(C)c12

>  <attributeMeasured>
melting point

>  <result>
202 to 203 °C

$$$$
>  <compound>
CCC(CC)c1ccc(OC)c2nc(Oc3ccc(OC(F)(F)F)cc3Br)n(C)c12

>  <attributeMeasured>
melting point

>  <result>
117 to 118 °C

$$$$
>  <compound>
CCC(CC)c1ccc(Cl)c2nc(Oc3c(Cl)cc(Cl)cc3-n3ccnc3)n(C)c12

>  <attributeMeasured>
melting point

>  <result>
134 to 135 °C

$$$$
>  <compound>
CCC(CC)c1ccc(OC)c2nc(Nc3ccc(Cl)cc3Br)n(C)c12

>  <attributeMeasured>
melting point

>  <result>
193 to 195 °C

$$$$
>  <compound>
CCC(CC)c1ccc(OC)c2nc(Oc3c(Cl)cc(Cl)cc3CN3CCCC3)n(C)c12.Cl

>  <attributeMeasured>
melting point

>  <result>
183 to 185 °C

$$$$
>  <compound>
CCC(CC)c1ccc(OC)c2nc(Oc3c(Cl)cc(Cl)cc3CN3CCCC3C)n(C)c12.Cl (centres unmarked)

>  <attributeMeasured>
melting point

>  <result>
171 to 173 °C

$$$$

Request the reported melting point associated with CCC(CC)c1ccc(Cl)c2nc(Oc3c(C)cc(S(N)(=O)=O)cc3Cl)n(C)c12 293 to 294 °C

Request the reported melting point associated with CCC(CC)c1ccc(Cl)c2nc(Oc3cccc4c3CN(C)C4)n(C)c12 99 to 100 °C

Request the reported melting point associated with CCOc1ccc(C(CC)CC)c2c1nc(Oc1c(C)cc(Cl)cc1Cl)n2C 116 to 117 °C

Request the reported melting point associated with CCC(CC)c1ccc(Cl)c2nc(Oc3c(C)cc(S(C)(=O)=O)cc3Cl)n(C)c12 199 to 200 °C

Request the reported melting point associated with CCC(CC=O)c1ccc(Cl)c2nc(Oc3c(C)cc(Cl)cc3Cl)n(C)c12 (centres unmarked) 157 to 158 °C

Request the reported melting point associated with CCC(CC)c1ccc(Cl)c2nc(Oc3c(Cl)cc(Cl)cc3NC)n(C)c12 162 to 163 °C

Request the reported melting point associated with CCC(CC)c1ccc(OC)c2nc(Oc3ccc(Cl)cc3N(C)C)n(C)c12 122 to 123 °C

Request the reported melting point associated with CCC(CC)c1ccc(OC)c2nc(Nc3ccc(Cl)cc3C(F)(F)F)n(C)c12 122 to 123 °C

Request the reported melting point associated with CCC(CC)c1ccc(Cl)c2nc(Oc3c(Cl)cc(OC(F)(F)F)cc3[S+](C)[O-])n(C)c12 (centres unmarked) 150 to 151 °C

====

attributeMeasured: melting point

>  <chemicalStructure>
CCC(CC)c1ccc(Cl)c2nc(Oc3c(Br)cc(Br)nc3C)n(C)c12

>  <melting point>
202 to 203 °C

$$$$

Request the reported melting point associated with CCC(CC)c1ccc(OC)c2nc(Nc3c(C)cc(Cl)cc3Cl)n(C)c12 201 to 203 °C

Request the reported melting point associated with CCC(CC)c1ccc(OC)c2nc(Nc3ccc(Cl)cc3N(C)C)n(C)c12 47 to 49 °C

Request the reported melting point associated with CCC(CC)c1ccc(OC)c2nc(Oc3c(F)cc(Br)cc3Cl)n(C)c12 129 to 131 °C
